Recorded values, source PubChem BioAssay (NCI).

Tested on: M14 melanoma
Experiment: NCI tumour cell line growth inhibition, 48 h; in the data active means GI50 below about 0.43 µM; inactive means the rest
Form entry, call: pick from YES (active), NO (inactive)

Here are 3 compounds together with their reported answers.
{"columns": ["COMPOUND", "SYSTEM UNDER TEST", "ANSWER LABEL"],
 "data": [
  ["CCN(CC)CCCC(C)Nc1c(-c2ccccc2)cnc2cc(Cl)ccc12 (centres undefined)", "M14 melanoma", "NO"],
  ["O=C(Nc1cnc(C(F)(F)F)cn1)c1cc(Cl)ccc1O", "M14 melanoma", "YES"],
  ["Cc1cc(NC(=O)c2cnc(N3CCN(CCOCCOCCOCCOCCC(=O)N[C@H](C(=O)N4C[C@H](O)C[C@H]4C(=O)N[C@@H](C)c4ccc(-c5scnc5C)cc4)C(C)(C)C)CC3)cn2)c2ncccc2c1", "M14 melanoma", "NO"]
]}

**Q:** Test call, this compound: OCc1ccc(N2CCCC2)cc1Cl
**A:** NO

**Q:** Check O=C(NN1C(=O)CSC1c1ccc(F)cc1)C(O)c1ccccc1 (centres undefined) too.
**A:** NO

**Q:** Check O=c1c(O)cccn1CCCN(CCCn1cccc(O)c1=O)CCn1cccc(O)c1=O too.
**A:** NO

**Q:** Check CC/C=C\C/C=C/C=C1/C(=O)C=C[C@@H]1C/C=C\CCCC(=O)OC too.
**A:** NO

**Q:** Check C=C1CC[C@@H]2[C@](C)(COC(C)=O)[C@H](OC(C)=O)CC[C@@]2(C)[C@@H]1CC(Nc1ccc(S(=O)(=O)Nc2nccs2)cc1)C1=CCOC1=O (some centres undefined) too.
**A:** NO

**Q:** Check O=c1c(-c2ccccc2)coc2cc(OC/C(=N/O)c3ccc(F)cc3)ccc12 too.
**A:** NO
